# Tested on: biotinyl-Phe-oxazolone
# PROTOCOL: self-aminoacylation, catalytic enhancement (BFO) (fold over background); higher = more active; k-Seq, kA / k0A0; sequences stand for … in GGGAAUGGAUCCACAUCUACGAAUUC…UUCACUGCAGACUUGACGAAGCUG
This sample holds only a part of the variants without activity.
// reported self-aminoacylation per item
Number, no unit, nothing else.

Use these answered entries as a reference point.
AUUAACCUAAGUCAUCGGGUG [Fam2.2 aminoacylation ribozyme variant]: 63.5
AUUACCCUGAUCCUCGAGUGA [Fam2.1 aminoacylation ribozyme variant]: 8.63
CCACAUUUCAAGCGAUCGGUC [Fam1B.1 aminoacylation ribozyme variant]: 1.52
CUACUUCAAUAAAUCGGUCUG [Fam1A.1 aminoacylation ribozyme variant]: 7.8
CCACACUUCGAGCAAUUGGUC [Fam1B.1 aminoacylation ribozyme variant]: 0.518
AUUCACCGAGGUCGUCGGGUG [Fam2.2 aminoacylation ribozyme variant]: 11.1

Name the recorded self-aminoacylation for AUUCACCUAGGUCCUCGGGUC [Fam2.2 aminoacylation ribozyme variant] .
4.38

Need self-aminoacylation, item AGGUUUGCUAAUAGGCGCAAG [Fam3.1 aminoacylation ribozyme variant]
1.16

Item under review: CUACCUCAAACAAGCGGUCUG [Fam1A.1 aminoacylation ribozyme variant] . Reported self-aminoacylation?
5.07

Requested read-out: self-aminoacylation. Entry: AUUCACCUAGGUCAUCGUAUG [Fam2.2 aminoacylation ribozyme variant]
0.528

Request the reported self-aminoacylation associated with CAACUUCAAACAAACGGUCUG [Fam1A.1 aminoacylation ribozyme variant]
0.948

###

Attribute: self-aminoacylation
# System: biotinyl-Phe-oxazolone
# PROTOCOL: self-aminoacylation, catalytic enhancement (BFO) (fold over background); higher = more active; k-Seq, kA / k0A0; sequences stand for … in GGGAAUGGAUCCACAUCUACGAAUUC…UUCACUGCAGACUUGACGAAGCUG
Variants at the floor of the assay were thinned out.

CCACACUUCAAUCGAUCGGUC [Fam1B.1 aminoacylation ribozyme variant]: 2.48

What does the record list as self-aminoacylation for CUACAUCAAACCAUCGGUCUG [Fam1A.1 aminoacylation ribozyme variant] ?
1.04

Fill blank: measured self-aminoacylation of the sequence CCACACUUCAAGCCAUCGUUC [Fam1B.1 aminoacylation ribozyme variant] is ____.
0.848

Fill in: self-aminoacylation of CCACACUUCAAGGAAUCGGUU [Fam1B.1 aminoacylation ribozyme variant] is ___
0.969

###

# self-aminoacylation annotations
# System: biotinyl-Val-oxazolone
# PROTOCOL: self-aminoacylation, catalytic enhancement (BVO) (fold over background); higher = more active; k-Seq, kA / k0A0; sequences stand for … in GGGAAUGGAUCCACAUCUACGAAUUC…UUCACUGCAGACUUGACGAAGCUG
This sample holds only a part of the variants without activity.
# respond with the number and nothing more

Bench note: what self-aminoacylation did AUUCACCUAGGUCAAUGGGUG [Fam2.2 aminoacylation ribozyme variant] show?
1.38

Entry under review: AUUCCCAUAGGUCAUCGGGUG [Fam2.2 aminoacylation ribozyme variant] . Reported self-aminoacylation?
13.4

What value of self-aminoacylation has been recorded for this entry: AUUAACCUGGUCAUCGAGAGA [Fam2.1 aminoacylation ribozyme variant]
0.783

Data origin: the supplement of paper PMC9233669
